assay: soluble on expression in E. coli; label from the status in PepcDB or PDB records

Seq	soluble on expression in E. coli
RRLIRLSDKTIAKSLNTSKFGGDELRRIGFHIRFHRAGALFARCWLLVEGETEVWLFNELARQCGYDLAAEGVQIVEFAQSGLRSLIKVAKEFGIDWHVVTDGDPAGKKYAHTVRAQLGHDQERHRLTELPDRDIEHFLYNHGFELFFKDMIKVPHDHPIPAKKVVNRVLKKHAKPDLALAIVSHCEEKGMECIPVLLRWTLKRIVTMASGNT	not soluble
MSLEKLTVSDSKKLFHEQFPYVIPGLYKRIVDEMLVELNLLNHQNEFIQDDLFCVGLTETFKELTKGYKPEEHLRVLFESLCNSSNFEPKKIKEASKKTLEVYKDKSLKEISILLKQKSDSNLYSSRIMNLGIYLIIANATDFKDIKDPEKNKIISDIINKLNLSFNKAEKDIGIYKSSILKMEQAKELLQEAKIKDKKEKEGHHHHHH	soluble
MKDPKAPIGVFDSGVGGLTVLKALRRLLPREEFLYFGDTARVPYGGKPLAMVRRFAWEIAGFLLRQGVKAIVVACNTASSAALPDLAEDLSVPVFGVVEPVARAVRGFRKVGLIGTQATVESGAYPRYVDLACAKACPLFVPLVEEGLWDDPVALLVARHYLEDAPKDLEALILGCTHYPFLKGAIGAVLPGVALLDSAELTAQEVARALEAEGLLNPEGRGRTFHLVTGDPEAYRALAERLGERVEAVRRVSLEEL	soluble
MSMPATSTKTTKLATSLIDEYALLGWRAMLTEVNLSPKPGLVDRINCGAHKDMALEDFHRSALAIQGWLPRFIEFGACSAEMAPEAVLHGLRPIGMACEGDMFRATAGVNTHKGSIFSLGLLCAAIGRLLQLNQPVTPTTVCSTAASFCRGLTDRELRTNNSQLTAGQRLYQQLGLTGARGEAEAGYPLVINHALPHYLTLLDQGLDPELALLDTLLLLMAINGDTNVASRGGEGGLRWLQREAQTLLQKGGIRTPADLDYLRQFDRECIERNLSPGGSADLLILTWFLAQI	not soluble
DDHSRALGRTTVNSNLGQGQVSGAESGAKTAEPAWIDFMQVALEGKPEQGKNIPDDIVRVRIDRNSGLLTHKVDSTSMFEYFEKGTEPTEYVGNSLEDSIYSSGSGGTTEELF	not soluble
MGSDKIHHHHHHMCRILGYLGTPVLLEDLLYAPDSSLLNQTIGAQMLQMLNLAGFGMAAWDPASHDPHLPFRYRTTQVALFDRNLKALAGKLRPGALLAHIRGVPYNSTVQINEQNCHPFRFEGVPLAMAHNGDLAGFREMRFDLAPHVRPEFARQIQGSTDSEWIYALAVSALDDPAGVNEPDAILAAIRRALSILRDARARHGITRSSSTNLMFCDGVNLVAVRFTFDFGRFDAGKLQGTTEYLSMWYTFGRDYGLHDGEWKLTGGAASADSVMVASEPLTRDFATWIEVPEYSALIVRHEGARRRAEIHALEV	not soluble
MALDANDLLPPEKAFVPELAVADDGVNVRFRIADGYYMYQAKIVGKTNPADLLGQPSFSKGEEKEDEFFGRQTVYHHEAQVAFPYAKAVGEPYKLVLTYQGSAEAGVCYPPVDTEFDIFGNGTYHPQT	soluble

====

assay: soluble on expression in E. coli; label from the status in PepcDB or PDB records

Seq	soluble on expression in E. coli
MGSDKIHHHHHHMRDNMSRLEDLEAFIHIAESGSLTRAATRLNRSLQAVSRSLTSLEVDVGLQLVHRTTRHSALSEAGQAFYRRVKPAVLEIREAQLEAAGRRTGPSGILRVGAPMLFGPDFLVPIVAEYIESYPQAEVDLSLTDAFVDLASKGIDVVVRIADLPDSNLQSKRLGALRRVVFGAPSYFARNGRPEHPAELRQHACIVRTIGNRPGQWAFQIDGKRRMVGVRGSFRSNAMAAIYSAVRSGLGLGYSPLWQIRHLVDAGQVEIVLQEFEPKPVPIHALWQESTRPPAKVRAFVDLLAMRLRLDDL	not soluble
MGDDCSDHSSLCKHCCYEMIRDSIKDYKSGPLYARCPQCFRNISSLTRRKRRLTSEGHDENCPAPMVPMVNAEHSISLCDYTTSMMGGGQVNKGFESSSSLFLCFRKFPIGNYNQKFFVGDSLKNGRIQYRNTKYEYSKKHFRSYKFFMIFQICRSKFQNL	not soluble

====

test: soluble on expression in E. coli; label from the status in PepcDB or PDB records

Seq	soluble on expression in E. coli
AHHHHHHGSSMELFEVHEGKAKVLVPKAKTIYDSPVFYNPRMAPNRDVVVLLLNVLKPKIVLDALSATGIRGIRFALETPAEEIWMNDINELAYELMKKNVLLNFKGTLKENAKRAIFEGEKTIVINNDDANRLMAEKHRYFHFIDLDPFGSPMEFLDTALRSVKRKGILGVTATDGAPLCGAHPKACLRKYLAVPLRGELCHEVGTRILVGVIARYAAKYDLGMEVLLAYYKDHYFRAFVKLKDGAKKGDETLENLGYVYFDEKTGRFEVEKSFLSTRPNAYGPLWLGPLKNEKVVGEMLELLVSGFEVANYREVLKLLHMLHEELDIPLFYDTHALGKRLKIEPKKLGEIIKELKSMGYEATRTHFSPTGIKTNAPYEVFVEVMRKN	soluble
MVKLFIGNLPREATEQEIRSLFEQYGKVLECDIIKNYGFVHIEDKTAAEDAIRNLHHYKLHGVNINVEASKNKSKASTKLHVGNISPTCTNQELRAKFEEYGPVIECDIVKDYAFVHMERAEDAVEAIRGLDNTEFQGKRMHVQLSTSRLRTAPGMGDQSGCYRCGKEGHWSKECPVDRTGRVADFTEQYNEQYGAVRTPYTMGYGESMYYNDAYGALDYYKRYRVRSYEAVAAAAAASAYNYAEQTMSHLPQVQSTTVTSHLNSTSVDPYDRHLLPNSGAAATSAAMAAAAATTSSYYGRDRSPLRRAAAMLPTVGEGYGYGPESELSQASAATRNSLYDMARYEREQYVDRARYSAF	soluble
MPMNRLISHIERSISIHKCVVVPSLGGFVAELLPACYDRDDNLIYPPKEELRFNAALSLRDGILEDSYARAYGISHRRARVMLDDDVRTLRAELVRAGRVSLEKMGELTLNPEGQISYSHRSEAEEGSGFSYGLAPCSLPRLAESFDEARPFAEREKEALSVGRSDYFYLKIHKRTGMMAAAAVMSAVLLVVPWGQISSSDKFAASFVPTELTAKSVWKDTEARPVQVVTAKPASVATTADSQPIEATASKPAESPNQLSTDVAEGGVPVMHEPVGSKCYYVVVGTFDTKKKAQEFYRMSIDKAIMPNAVVLLSSNKARIYSDRFATADEAQTYIRSMKDKHRLFADAWVYAGR	not soluble
TVVVSEAGASVYSASEFAANEFPNLDVSLRGAVSIARRLQDPLAELVKIEPKAIGVGQYQHDVNQTQLARKLDAVVEDCVNAVGVDLNTASAPLLARVAGMTKTLAQNIVEYRDENGRFESRSELKKVPRLGPKAFEQCAGFMRIANGKNPLDASGVHPEAYPVVEKILQATAQSIQDLMSNAGVVRQLDAKQFI	not soluble
HSDPARRGQLSVCDSISEWVTAADKKTAVDMSGGTVTVLEKVPVSKGQLKQYFYETKCNPMGYTKEGCRGIDKRHWNSQCRTTQSYVRALTMDSKKRIGWRFIRIDTSCVCTLTIKRGR	soluble

====

assay: soluble on expression in E. coli; label from the status in PepcDB or PDB records
Assay Readout: soluble on expression in E. coli

Seq	Result
MYDTEIPYEGKISIYTYFCKECGYRKTEVYSDEKRDPKKITIRIENPDDLRIIVYRSRRADVYIPEMEASIDSAEYSNGEITTIEGIIYRIGEKLDLLAADDQNNKKIASLRKRIDGIINGKFESFTLIIMDESGKSVVHS	not soluble
MKRFFLKTILAAFCVYVPAILNTAYACTRIVYQGPNGTIITARSMDWKGEIPANLWIFPRGIERNGEAGSTSVKWKSTYGSVITSSWDIASSDGMNEKGLVGNLLWLVESTYPKFVKDKDKPGLAVSLWLQYVLDNFATVSEAVAFLEKEPFVVASSHIPGTAIFATVHLSISDATGDNAIFEYIGGKLVIHHDRSYVTMTNSPVFDEQLAINTYWKNIPGTVMLPGTNRAADRFVRASYYIDAIPKTDNTRVALPSVFSVIRNCSVPLGISSEAEPNISSTRWRTVSDQKNLVYYFDNVLNPNVVWVEFSKIDFSEKAKVKKLTLANNENYSGEASMNFKAALPFTFAGLD	not soluble

====

assay: soluble on expression in E. coli; label from the status in PepcDB or PDB records

Seq	soluble on expression in E. coli
MLNEFDQYLHERYLSGKARKDRWYWNNSIQRGRSTAVRENWQWKPAVAYCRYADDFVLIVKGTKAQAEAIREECRGVLEGSLKLRLNMDKTKITHVNDGFIFLGHRIIRKRSRYGEMRVVSTIPQEKARNFAASLTALLSGNYSESKVDMAEQLNRKLKGWAMFYQFVDFKAKVFSYIDRVVFWKLAHWLARKYRTGIASLMRWWCKSPKPGQSKTWVLFGKTNHGKLSGEILYRLVGQGKKLFRWRLPEGNPYLRTETRNTYTSRFTEVAMAFASI	not soluble
MGSDKIHHHHHHMGRAPTMEADMRILLLCWRDTTHPQGGGSERYLEHIAKYLVASGHEVIFRTARHTDASRRAVRDGVEYQYAGGKYSVYVRAAVAQLMGRLGVGRLRGVDVAVDTQNGIPFFARVFSGVPTILLTHHCHRRQWDVAGPLIARLGWFIESKVSPWVHRGVRYVTVSEPSRDELVELGVPAGNITIVRNGIDDPPAPMNLPPVTRPHLVTLSRLVPHKQIEHAIDVVRELDGVVLDIIGSGWWEPQLREYARDVADRVIFHGQVAEDHKHALLAQAAVHVMPSRKEGWGLAVIEAGQHGVPTVGYSHSGGLRDSVRGGGVLVETPAQLTCAIRQLLADQRYRDELGRRAYGFASTFSWEDTGREFLRVIAQPQIPAAAHSTKQPNPR	not soluble
MEVEAFAHSVAPLAPRLKRVAYSILDDEEAAADVSQEALMRLWINRERLGGYDSIEAVAVTTARRIALDMLRKEGRMEPLPDDLPFSDHAPTPQGVLEQSETMRLVEAAIEALPPLQRMTFRLKEIEGYESEVIARLVGVKVEAVYTNLSRARRALRTALALQLKR	not soluble
MAARKLIARINPTNSALFVCDLQEKFASNIKYFPEIITTSRRLIDAARILSIPTIVTEQYPKGLGHTVPTLKEGLAENTPIFDKTKFSMCIPPTEDTLKKVQNVILVGIEAHVCVLQTTYDLLERGLNVHVVVDAVSSRSHTDRHFAFKQMEQAGAILTTSEATILGLVGGSDHPKFKEVQKLILTSAPDTGLVPLSKL	soluble
MQPELTKTPANFPLSPLGAVVILGDIPNPELLAIPLAPTPSTMFGPRGACLVAETGALWVSDTGHHRLLGWRKLPTTDSQPADWVIGQPDFYHEGQNAKGTPGRTTVSVPTGICVCGGGLAIADAWNHRVLIWHKIPEDSNVPADLVLGQRNFSENEPNRGKQSPDANTMHWPYGVAYHQGKLFVADTGNRRLLIWQQLPTENGQPADIVLGQPDMISRNENGGGSPTAGSMRWCHDIAFWDDNLVVTDAGNNRVMIWQGIPTENNAPCAVVLGQKSFDLVEMNQGVYFPSAGSLSMPYGVGATEDWLMVADTANSRLLGWRKRESILLLQGAIADGIIGQNSFQSKSENRHFGLPTRDSLNWCYGVKVCGSTAVISDSGNNRVLLWRFLLEHHHHHH	not soluble
AIACGDCVEKEYPNRGTTCLENGSFLLNFAGCAVCSKRDFMLITNRSLKEEDGEEIVTYDRIYHAVSVVWQS	soluble
MEFQKKKQKVIQVKEIKFRPGTDEGDYQVKLRSLIRFLEEGDKAKITLRFRGREMAHQQIGMEVLNRVKDDLQELAVVESFPTKIEGRQMIMVLAPKKKQ	soluble
MAHHHHHHMPNDTLQVKLSQDSLFFPLPFTNATIDNVVQVKNMLPVVQGDPKANVISFKILSRVQNRYSVHPPVGFIGAGEHATIIFSFNPEHVKMAKNPEERELPTEATKDAIHVDFAVVDAPSVQTALAHWVPGSKETKASWEVVADASRFWKQRGQVKENSPITMRYKLRCVFATRNNVPDSLVMCMKEEGGCCKLITDGAAPLPRTRPPMTSSTQPQNTAPPEAPPHRYSESQRTTPTTRSPRSDACCTPCAIGPPGIFTMGPGAAAAASAPSASPPSSAPTQKSKTSAGITCGDITLKSIAEEVLNYKLSYRAVGVLLFLTLLCGLLDQSNLLTWLIAKQ	not soluble
MVDIANEVGASESAIPPLKMLLLEGARQAALEAGLQNNSGILADTTFGQQALNDVTGQGWWIGRPVEMPGSYPLKLEHGDIGSQLVSWPQEHVVKCLVFYHPLDAESVRLEQEALIDEVYRACCQSGHDLLLEVILPRDAADQNEQYYPQIVERFYQLGILPDWWKLPPLSPDRWREISQHIEHYDPECRGILILGLDAPESELKSGFAAAADMPWVKGFAVGRTIFGEPSRQWLGGQLNDEQLIATVKQKYRMLIDYWREYRPAR	not soluble
MIGNILVAHGMRKGNQNEALEEFIGTLLKDEQYYYELAFLESETQNLEIIMEKMIKQGITKFRIVPLLIFSAMHYISDIPQILKEMKARYPQIDSKMSAPLGTHPYMKTLVENRIAEEKVSEGSTKATIVIAHGNGSGRFTKAHDELKAFVKTLDSHHPVYARALYGTLAFKNDLDKISEQYDELVIVPLFLFDGRLVNKVKRLLGEMTLHSQLHITPSINFDPILRLIIRERLEALDILEHHHHHH	soluble
MAIRSSVLALCVATLLTGCQNLNTNTLMQSGAQAFQAATLSDAQVKALSDQSCEQMDKEAKIAPADSKYTQRLNKIADALGHDINGTPANYKVYLEKDVNAWAMANGCIRVYSGLMDMMNDNEVEGVLGHEMGHVALGHTRKAMQVAYAATAARTAIASAGGVAASLSQSQLADLGEKLVNSQFSQSQESQADDYSFDLLKKRGINREGLASSFEKLAKLDASHESSMFDSHPSSEGRAKHIRERITAEKLEHHHHHH	soluble
MTTPNTQLWEVFIRSRNGLAHKHVGSLHAADATLALQAARDIYTRRGEGLSIWVVPSNAITASDPAEAGMLFEPAESKIYRHPTFYEVPDEVGHM	not soluble
